Reported values of IC50 for individual entries
Biological target: REN (Homo sapiens, UniProt P00797)
Construct: purchased Cayman Chemical
Sequence (P00797 67-406): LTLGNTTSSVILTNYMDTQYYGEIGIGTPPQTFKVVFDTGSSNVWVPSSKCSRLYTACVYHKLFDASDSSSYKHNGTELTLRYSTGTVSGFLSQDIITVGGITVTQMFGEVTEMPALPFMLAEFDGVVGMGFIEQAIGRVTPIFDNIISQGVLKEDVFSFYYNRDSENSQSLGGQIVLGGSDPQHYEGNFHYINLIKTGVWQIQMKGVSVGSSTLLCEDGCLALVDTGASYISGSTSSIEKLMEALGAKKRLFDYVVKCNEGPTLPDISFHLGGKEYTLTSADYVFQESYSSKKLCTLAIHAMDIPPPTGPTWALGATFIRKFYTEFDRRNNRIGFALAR
Test: Renin Inhibitor Screening Assay Kit (REN)
Assay type: biochemical
Conditions: target REN; mean ± SD of three independent repeats, Bliss method, eight data points
metric.name: IC50 (µM)

>>> measured("CC(C)(C)NC(=O)[C@@H]1C[C@@H]2CCCC[C@@H]2CN1C[C@@H](O)[C@H](Cc1ccccc1)NC(=O)[C@H](CC(N)=O)NC(=O)c1ccc2ccccc2n1 [Saquinavir]")
69.1
>>> measured("CC(C)(C)NC(=O)[C@@H]1CN(Cc2cccnc2)CCN1C[C@@H](O)C[C@@H](Cc1ccccc1)C(=O)N[C@H]1c2ccccc2C[C@H]1O [Indinavir]")
44.3
>>> measured("Cc1cccc(C)c1OCC(=O)N[C@@H](Cc1ccccc1)[C@@H](O)C[C@H](Cc1ccccc1)NC(=O)[C@H](C(C)C)N1CCCNC1=O [Lopinavir]")
49.3
>>> measured("CC(C)C[C@H](NC(=O)[C@H](CCc1ccccc1)NC(=O)CN1CCOCC1)C(=O)N[C@@H](Cc1ccccc1)C(=O)N[C@@H](CC(C)C)C(=O)[C@@]1(C)CO1 [Carfilzomib]")
22
